All values here come from ChEMBL document CHEMBL1909046.

test: DRUGMATRIX: Phosphodiesterase PDE4 enzyme inhibition (substrate: [3H]cAMP + cAMP); settings: u-937; Not Active = under 50% inhibition at 10 µM

substance	Ki
ZIRCONIUM(IV) CHLORIDE	Not Active
TRANSPLATIN	Not Active
COLISTIN	Not Active
COBALTOUS CHLORIDE	Not Active

###

biological target: UniProt P06239; assay: DRUGMATRIX: Protein Tyrosine Kinase, LCK enzyme inhibition (substrate: Poly(Glu:Tyr)); assay type: cell-based, Insect cells; details: insect cells; Not Active = under 50% inhibition at 10 µM
Sequence (P06239 whole entry): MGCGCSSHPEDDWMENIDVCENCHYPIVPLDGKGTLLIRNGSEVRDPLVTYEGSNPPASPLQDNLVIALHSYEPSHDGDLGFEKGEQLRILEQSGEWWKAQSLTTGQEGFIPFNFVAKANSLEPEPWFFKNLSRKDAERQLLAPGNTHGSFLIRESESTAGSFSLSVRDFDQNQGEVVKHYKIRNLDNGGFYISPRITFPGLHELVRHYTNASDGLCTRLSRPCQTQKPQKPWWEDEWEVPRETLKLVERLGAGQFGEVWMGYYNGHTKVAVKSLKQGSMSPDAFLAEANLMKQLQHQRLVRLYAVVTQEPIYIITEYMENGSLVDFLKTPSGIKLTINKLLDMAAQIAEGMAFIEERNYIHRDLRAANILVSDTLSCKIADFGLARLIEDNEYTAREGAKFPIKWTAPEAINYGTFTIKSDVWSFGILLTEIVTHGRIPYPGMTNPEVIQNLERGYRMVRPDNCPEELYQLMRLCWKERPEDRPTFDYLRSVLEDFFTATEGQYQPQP
measurement type: IC50

molecule	data value
C[C@H]1O[C@H](O[C@H]2[C@H](O)[C@@H](O)[C@@H](O[C@H]3[C@H](O)[C@@H](O)C(O)O[C@@H]3CO)O[C@@H]2CO)[C@H](O)[C@@H](O)[C@@H]1N[C@H]1C=C(CO)[C@@H](O)[C@H](O)[C@H]1O (stereo partly specified) [ACARBOSE]	Not Active
CN(C)C(=O)C(CCN1CCC(O)(c2ccc(Cl)cc2)CC1)(c1ccccc1)c1ccccc1 [LOPERAMIDE]	Not Active
Cc1cc(O)cc(C)c1Cl [CHLOROXYLENOL]	Not Active
CC[C@]1(O)C[C@@H]2CN(CCc3c([nH]c4ccccc34)[C@@](C(=O)OC)(c3cc4c(cc3OC)N(C)[C@H]3[C@@](O)(C(N)=O)[C@H](O)[C@]5(CC)C=CCN6CC[C@]43[C@@H]65)C2)C1 [VINDESINE]	Not Active
CN1C(=O)CN=C(c2ccccc2)c2cc([N+](=O)[O-])ccc21 [NIMETAZEPAM]	Not Active
CCOc1nc2cccc(C(=O)O)c2n1Cc1ccc(-c2ccccc2-c2nnn[nH]2)cc1	Not Active
